- Tested on: ABC-1
- assay_explanation: relative viability (nuclei count vs DMSO), 5 days (fraction); higher = more cells survive
- conditions: first compound 0.000632 µM
readout_name: relative viability

{"compound": "CC(=O)O[C@@]12CO[C@@H]1C[C@H](O)[C@@]1(C)C(=O)[C@H](O)C3=C(C)[C@@H](OC(=O)[C@H](O)[C@@H](NC(=O)OC(C)(C)C)c4ccccc4)C[C@@](O)([C@@H](OC(=O)c4ccccc4)[C@H]21)C3(C)C [Docetaxel] + Cc1nc(NC(=O)N2CCC[C@H]2C(N)=O)sc1-c1ccnc(C(C)(C)C(F)(F)F)c1 [Alpelisib] (partner 2 µM)", "result": 1.07}
{"compound": "CC(=O)O[C@@]12CO[C@@H]1C[C@H](O)[C@@]1(C)C(=O)[C@H](O)C3=C(C)[C@@H](OC(=O)[C@H](O)[C@@H](NC(=O)OC(C)(C)C)c4ccccc4)C[C@@](O)([C@@H](OC(=O)c4ccccc4)[C@H]21)C3(C)C [Docetaxel] + CC(=O)c1c(C)c2cnc(Nc3ccc(N4CCNCC4)cn3)nc2n(C2CCCC2)c1=O [Palbociclib] (partner 0.5 µM)", "result": 0.587}
{"compound": "CC(=O)O[C@@]12CO[C@@H]1C[C@H](O)[C@@]1(C)C(=O)[C@H](O)C3=C(C)[C@@H](OC(=O)[C@H](O)[C@@H](NC(=O)OC(C)(C)C)c4ccccc4)C[C@@](O)([C@@H](OC(=O)c4ccccc4)[C@H]21)C3(C)C [Docetaxel] + COc1cccc2cc(-c3nc([C@H]4CC[C@H](C(=O)O)CC4)n4ncnc(N)c34)[nH]c12 [OSI-027] (partner 0.5 µM)", "result": 0.562}

* * *

Item-by-item account of relative viability
- Tested on: NCI-H1651
- assay_explanation: relative viability (nuclei count vs DMSO), 5 days (fraction); higher = more cells survive
- conditions: first compound 2.53 µM
readout_name: relative viability

{"compound": "Cc1cnc(-c2cnc(NCCNc3ccc(C#N)cn3)nc2-c2ccc(Cl)cc2Cl)[nH]1 + Nc1ncn([C@H]2C[C@H](O)[C@@H](CO)O2)c(=O)n1 [Decitabine] (partner 2 µM)", "numeric_readout": 0.625}
{"compound": "O=c1[nH]c2ccccc2n1C1CCN(CCCC(c2ccc(F)cc2)c2ccc(F)cc2)CC1 [Pimozide] + COc1cccc2cc(-c3nc([C@H]4CC[C@H](C(=O)O)CC4)n4ncnc(N)c34)[nH]c12 [OSI-027] (partner 0.5 µM)", "numeric_readout": 0.757}
{"compound": "O=c1[nH]c2ccccc2n1C1CCN(CCCC(c2ccc(F)cc2)c2ccc(F)cc2)CC1 [Pimozide] + COc1cc2c(Oc3ccc(NC(=O)C4(C(=O)Nc5ccc(F)cc5)CC4)cc3F)ccnc2cc1OCCCN1CCOCC1 [Foretinib] (partner 0.25 µM)", "numeric_readout": 0.871}
{"compound": "Cc1cnc(-c2cnc(NCCNc3ccc(C#N)cn3)nc2-c2ccc(Cl)cc2Cl)[nH]1 + COc1cccc2cc(-c3nc([C@H]4CC[C@H](C(=O)O)CC4)n4ncnc(N)c34)[nH]c12 [OSI-027] (partner 0.5 µM)", "numeric_readout": 0.801}
{"compound": "Cc1cnc(-c2cnc(NCCNc3ccc(C#N)cn3)nc2-c2ccc(Cl)cc2Cl)[nH]1 + CC(=O)Nc1cccc(-n2c(=O)n(C3CC3)c(=O)c3c(Nc4ccc(I)cc4F)n(C)c(=O)c(C)c32)c1 [Trametinib] (partner 0.02 µM)", "numeric_readout": 0.864}
{"compound": "Cc1cnc(-c2cnc(NCCNc3ccc(C#N)cn3)nc2-c2ccc(Cl)cc2Cl)[nH]1 + Cc1cc(Nc2cc(N3CCN(C)CC3)nc(Sc3ccc(NC(=O)C4CC4)cc3)n2)n[nH]1 [Tozasertib] (partner 0.1 µM)", "numeric_readout": 0.565}
{"compound": "O=c1[nH]c2ccccc2n1C1CCN(CCCC(c2ccc(F)cc2)c2ccc(F)cc2)CC1 [Pimozide] + CS(=O)(=O)CCNCc1ccc(-c2ccc3ncnc(Nc4ccc(OCc5cccc(F)c5)c(Cl)c4)c3c2)o1 [Lapatinib] (partner 2 µM)", "numeric_readout": 0.809}
{"compound": "Cc1cnc(-c2cnc(NCCNc3ccc(C#N)cn3)nc2-c2ccc(Cl)cc2Cl)[nH]1 + CCNC(=O)c1noc(-c2cc(C(C)C)c(O)cc2O)c1-c1ccc(CN2CCOCC2)cc1 [Luminespib] (partner 0.01 µM)", "numeric_readout": 0.883}
{"compound": "Cc1cnc(-c2cnc(NCCNc3ccc(C#N)cn3)nc2-c2ccc(Cl)cc2Cl)[nH]1 + O=C(CCCCCCC(=O)Nc1ccccc1)NO [Vorinostat] (partner 1 µM)", "numeric_readout": 0.58}
{"compound": "Cc1cnc(-c2cnc(NCCNc3ccc(C#N)cn3)nc2-c2ccc(Cl)cc2Cl)[nH]1 + Cc1nc(Nc2ncc(C(=O)Nc3c(C)cccc3Cl)s2)cc(N2CCN(CCO)CC2)n1 [Dasatinib] (partner 0.075 µM)", "numeric_readout": 0.355}
{"compound": "O=c1[nH]c2ccccc2n1C1CCN(CCCC(c2ccc(F)cc2)c2ccc(F)cc2)CC1 [Pimozide] + CC(=O)c1c(C)c2cnc(Nc3ccc(N4CCNCC4)cn3)nc2n(C2CCCC2)c1=O [Palbociclib] (partner 0.5 µM)", "numeric_readout": 0.497}
